src = patent US10618903B2

assay: Caco Permeability Assay; type: in vitro ADME; conditions: human, Caco-2, Caco-2 cells, 3 μM compound
measured_property: Papp at 2 h, 3 µM (×10⁻⁶ cm/s)
Please reply with the bare figure in ×10⁻⁶ cm/s and do not write the unit itself.

What value of Papp at 2 h, 3 µM has been recorded for this entry: CC[C@@H](C)Nc1cc(-c2cnn3cc(C#N)cnc23)ncc1C(=O)NC[C@@H](F)C(C)(C)O [Example 97]
8

What value of Papp at 2 h, 3 µM has been recorded for this entry: CCn1cc(Nc2cc(-c3cnn4cc(Cl)cnc34)ncc2C(=O)NC[C@@H](F)C(C)(C)O)cn1 [Example 232]
3.7

What value of Papp at 2 h, 3 µM has been recorded for this entry: CC(C)(O)[C@H](F)CNC(=O)c1cnc(-c2cnc3cc(C#N)cnn23)cc1NC1CC(F)(F)C1 [Example 195]
3.7

What value of Papp at 2 h, 3 µM has been recorded for this entry: CC[C@@H](C)Nc1cc(-c2cnn3cc(Cl)cnc23)ncc1C(=O)NC[C@@H](F)C(C)(C)O [Example 70]
7.3

What value of Papp at 2 h, 3 µM has been recorded for this entry: CC(C)Nc1cc(-c2cnc3cccnn23)ncc1C(=O)NC[C@@H](F)C(C)(C)O [Example 177]
12.6

What value of Papp at 2 h, 3 µM has been recorded for this entry: CC(CCF)Nc1cc(-c2cnn3cc(C#N)cnc23)ncc1C(=O)NC[C@@H](F)C(C)(C)O (some centres unmarked) [Example 106]
7

What value of Papp at 2 h, 3 µM has been recorded for this entry: CC(C)(F)[C@H](F)CNC(=O)c1cnc(-c2cnc3cc(Cl)cnn23)cc1NC1COC1 [Example 189]
31.2
